Target: 5-hydroxytryptamine receptor 7 (Homo sapiens, UniProt P34969)
Sequence (P34969 whole entry): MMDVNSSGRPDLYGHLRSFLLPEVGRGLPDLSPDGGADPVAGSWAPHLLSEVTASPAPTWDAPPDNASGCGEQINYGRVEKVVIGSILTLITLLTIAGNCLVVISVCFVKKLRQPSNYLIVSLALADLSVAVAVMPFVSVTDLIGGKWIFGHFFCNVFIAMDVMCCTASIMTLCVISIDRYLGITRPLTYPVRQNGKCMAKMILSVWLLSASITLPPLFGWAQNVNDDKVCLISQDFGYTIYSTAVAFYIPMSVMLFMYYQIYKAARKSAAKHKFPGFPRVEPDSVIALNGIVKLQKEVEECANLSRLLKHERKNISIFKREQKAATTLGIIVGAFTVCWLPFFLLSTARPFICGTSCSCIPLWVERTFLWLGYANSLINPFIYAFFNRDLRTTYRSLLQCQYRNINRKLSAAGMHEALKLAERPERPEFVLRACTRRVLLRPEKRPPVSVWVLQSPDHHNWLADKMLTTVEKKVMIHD
Assay: Displacement of [3H]LSD from human recombinant 5HT7 receptor expressed in CHO cells
Strictly below 400 nM in IC50: class 1. Otherwise: class 0.

Take the compound `COc1ccc(S(=O)(=O)N(CCCN2CCN(c3ccccc3OC)CC2)CC2CC2)cc1` and say whether its IC50 is less than 400 nM.
class 1

Lab log: compare recorded IC50 with 400 nM; is it strictly lower for `O=S(=O)(c1cccc2cccnc12)N(CCCN1CCN(c2ccccc2)CC1)CC1CCCCC1` ?
class 0

Given CC(CCN1CCN(c2cccc(C(F)(F)F)c2)CC1)NS(=O)(=O)c1ccc2ccccc2c1 (centres undefined) , is recorded IC50 strictly lower than 400 nM?
class 1

State whether 400 nM exceeds IC50 recorded for COc1ccccc1N1CCN(CCC(C)NS(=O)(=O)c2ccc3ccccc3c2)CC1 (centres undefined) .
class 1

Confirm or reject: IC50 of `O=S(=O)(c1cccc2cccnc12)N(CCCN1CCN(c2ccccc2)CC1)CC1CC1` lies strictly below 400 nM
class 0

Below 400 nM on IC50? Entry `COc1ccc(S(=O)(=O)N(CCCN2CCN(c3ccccc3OC)CC2)CC2CCCCC2)cc1`
class 1

# check: IC50 < 400 nM for `O=S(=O)(c1ccc2ccccc2c1)N(CCCN1CCN(c2cccc(C(F)(F)F)c2)CC1)CC1CC1`
class 1

Criterion: IC50 strictly below 400 nM. Is it met by `O=S(=O)(c1ccc2ccccc2c1)N(CCCN1CCN(c2cccc(C(F)(F)F)c2)CC1)CC1CCCCC1` ?
class 0

IC50 under 400 nM? Item: `O=S(=O)(c1ccc(C(F)(F)F)cc1)N(CCCN1CCN(c2ccccc2)CC1)CC1CCCCC1`
class 0

====

Target: 5-hydroxytryptamine receptor 2A (Homo sapiens)
Assay: Displacement of [3H]ketanserin from human recombinant 5HT2A receptor expressed in avCHO-K1 cells
pIC50: −log10 of the molar value.
Mark FALSE for pIC50 values under 7, and TRUE for everything at or above.

Please tell me: is the compound `COc1ccc(S(=O)(=O)N(CCCN2CCN(c3cccc(C(F)(F)F)c3)CC2)CC2CCCCC2)cc1` at or over 7 in terms of pIC50?
TRUE

Is it the case that `COc1ccccc1N1CCN(CCCN(CC2CC2)S(=O)(=O)c2cccc3cccnc23)CC1` has pIC50 reaching or exceeding 7?
FALSE

Reported pIC50 at or above 7? `COc1ccccc1N1CCN(CCCN(CC2CCCCC2)S(=O)(=O)c2cccc3cccnc23)CC1`
TRUE

Hi team, for `COc1ccc(S(=O)(=O)N(CCCN2CCN(c3ccccc3OC)CC2)CC2CC2)cc1` , is the recorded pIC50 at or above 7?
FALSE

Is reported pIC50 greater than or equal to 7 here: `O=S(=O)(c1cccc2ccccc12)N(CCCN1CCN(c2ccccc2)CC1)CC1CC1`
FALSE

Kindly determine if pIC50 recorded for `O=S(=O)(c1ccc(C(F)(F)F)cc1)N(CCCN1CCN(c2ccccc2)CC1)CC1CCCCC1` is above or exactly 7.
TRUE

Check the entry `O=S(=O)(c1ccc2ccccc2c1)N(CCCN1CCN(c2ccc(F)cc2)CC1)CC1CC1` : does pIC50 equal or exceed 7?
TRUE

Textbook exercise: given the entry CC(CCN1CCN(c2ccccc2)CC1)NS(=O)(=O)c1ccc2ccccc2c1 (configuration not stated) , state whether its pIC50 is greater than or equal to 7.
TRUE

Check if pIC50 >= 7 (inclusive). Item: `O=S(=O)(c1cccc2cccnc12)N(CCCN1CCN(c2ccc(F)cc2)CC1)CC1CC1`
TRUE

# check: pIC50 of CC(CCN1CCN(c2cccc(C(F)(F)F)c2)CC1)NS(=O)(=O)c1ccc2ccccc2c1 (configuration not stated) is greater than or equal to 7
FALSE

Reported pIC50 at or above 7? `O=S(=O)(c1ccc(F)cc1)N(CCCN1CCN(c2ccccc2)CC1)CC1CCCCC1`
TRUE

Hello, I need to know if `O=S(=O)(c1ccc2ccccc2c1)N(CCCN1CCN(c2ccc(F)cc2)CC1)CC1CCCCC1` has measured pIC50 not below 7. Thanks!
TRUE

Assess whether reported pIC50 for COc1ccccc1N1CCN(CCC(C)NS(=O)(=O)c2ccc3ccccc3c2)CC1 (configuration not stated) sits at 7 or higher.
FALSE

Hi, just wondering whether `COc1ccccc1N1CCN(CCCN(CC2CCCCC2)S(=O)(=O)c2ccc3ccccc3c2)CC1` shows pIC50 of 7 or higher.
TRUE

Does pIC50 meet or surpass 7 for `O=S(=O)(c1cccc2cccnc12)N(CCCN1CCN(c2ccccc2)CC1)CC1CCCCC1` ?
TRUE

Given the entry CC(CCN1CCN(c2ccc(F)cc2)CC1)NS(=O)(=O)c1ccc2ccccc2c1 (configuration not stated) , answer whether its pIC50 meets or surpasses 7.
TRUE

Please tell me: is the compound `O=[N+]([O-])c1ccc(S(=O)(=O)N(CCCN2CCN(c3ccccc3)CC2)CC2CC2)cc1` at or over 7 in terms of pIC50?
FALSE

I'd appreciate it if you could say whether `O=S(=O)(c1ccc2ccccc2c1)N(CCCN1CCN(c2ccccc2)CC1)CC1CCCCC1` has pIC50 at least equal to 7.
TRUE

Given the entry `O=S(=O)(c1ccc2ccccc2c1)N(CCCN1CCN(c2cccc(C(F)(F)F)c2)CC1)CC1CC1` , answer whether its pIC50 meets or surpasses 7.
FALSE

Answer whether pIC50 of `O=S(=O)(c1ccc2ccccc2c1)N(CCCN1CCN(c2cccc(C(F)(F)F)c2)CC1)CC1CCCCC1` is greater than or equal to 7.
TRUE

pIC50 >= 7 for `O=S(=O)(c1cccc2cccnc12)N(CCCN1CCN(c2ccc(F)cc2)CC1)CC1CCCCC1` ?
TRUE

Is pIC50 for `O=S(=O)(c1cccc2cccnc12)N(CCCN1CCN(c2cccc(C(F)(F)F)c2)CC1)CC1CCCCC1` at or above 7?
TRUE

State whether the measured pIC50 reaches 7, counting equality as reaching it, for `O=S(=O)(c1cccc2cccnc12)N(CCCN1CCN(c2ccccc2)CC1)CC1CC1`
FALSE

Would you say `COc1ccc(S(=O)(=O)N(CCCN2CCN(c3ccccc3)CC2)CC2CCCCC2)cc1` shows pIC50 at minimum 7?
TRUE

Reported pIC50 at or above 7? `O=S(=O)(c1cccc2cccnc12)N(CCCN1CCN(c2ccc(Cl)c(Cl)c2)CC1)CC1CCCCC1`
TRUE

Entry `O=S(=O)(c1cccc2ccccc12)N(CCCN1CCN(c2ccccc2)CC1)CC1CCCCC1` : is its pIC50 no less than 7?
TRUE

Kindly determine if pIC50 recorded for `COc1ccc(S(=O)(=O)N(CCCN2CCN(c3ccccc3OC)CC2)CC2CCCCC2)cc1` is above or exactly 7.
TRUE

====

Organism: Homo sapiens
Experiment: Selectivity for human recombinant 5HT2A receptor over human recombinant 5HT7 receptor
MEASURED_QUANTITY: Ratio IC50

Field request: Ratio IC50 | item: `O=S(=O)(c1ccc2ccccc2c1)N(CCCN1CCN(c2ccccc2)CC1)CC1CCCCC1`
1500

Ratio IC50 for `O=S(=O)(c1ccc2ccccc2c1)N(CCCN1CCN(c2ccc(F)cc2)CC1)CC1CCCCC1` ?
3000

Consider the compound shown here: CC(CCN1CCN(c2ccc(F)cc2)CC1)NS(=O)(=O)c1ccc2ccccc2c1 (centres undefined) What is its recorded Ratio IC50?
85

Quick one: Ratio IC50 for CC(CCN1CCN(c2ccccc2)CC1)NS(=O)(=O)c1ccc2ccccc2c1 (centres undefined) ?
50

====

Kindly supply the reported IC50 values for the records listed here.
Target: 5-hydroxytryptamine receptor 2A (Homo sapiens, UniProt P28223)
Sequence (P28223 whole entry): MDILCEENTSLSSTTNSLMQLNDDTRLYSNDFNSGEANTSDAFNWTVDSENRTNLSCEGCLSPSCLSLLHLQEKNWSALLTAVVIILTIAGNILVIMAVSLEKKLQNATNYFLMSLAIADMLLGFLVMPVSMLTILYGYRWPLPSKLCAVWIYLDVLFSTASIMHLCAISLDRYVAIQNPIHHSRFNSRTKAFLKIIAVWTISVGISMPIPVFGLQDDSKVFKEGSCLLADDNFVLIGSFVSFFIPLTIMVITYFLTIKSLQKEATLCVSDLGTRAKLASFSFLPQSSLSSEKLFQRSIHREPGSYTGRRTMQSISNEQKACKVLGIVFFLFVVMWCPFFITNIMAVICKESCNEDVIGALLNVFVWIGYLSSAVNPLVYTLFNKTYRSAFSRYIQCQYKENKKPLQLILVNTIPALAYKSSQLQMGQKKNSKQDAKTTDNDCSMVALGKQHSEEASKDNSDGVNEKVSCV
Assay: Displacement of [3H]ketanserin from human recombinant 5HT2A receptor expressed in avCHO-K1 cells
Please state the figure in nM; there is no need to write the unit.

// query IC50 value for entry `COc1ccc(S(=O)(=O)N(CCCN2CCN(c3ccc(F)cc3)CC2)CC2CCCCC2)cc1`
3.4

Query (compound): `COc1ccc(S(=O)(=O)N(CCCN2CCN(c3ccccc3)CC2)CC2CC2)cc1` ; field requested: IC50
136

Could you share which IC50 value was measured for `O=[N+]([O-])c1ccc(S(=O)(=O)N(CCCN2CCN(c3ccccc3)CC2)CC2CCCCC2)cc1` ?
4.2

# IC50 lookup, item `COc1ccc(S(=O)(=O)N(CCCN2CCN(c3cccc(C(F)(F)F)c3)CC2)CC2CC2)cc1`
726

Param item = `O=S(=O)(c1ccc2ccccc2c1)N(CCCN1CCN(c2ccccc2)CC1)CC1CC1` ; retrieve measured IC50.
35.9

====

Biological target: 5-hydroxytryptamine receptor 2C (Homo sapiens, UniProt P28335)
Sequence (P28335 whole entry): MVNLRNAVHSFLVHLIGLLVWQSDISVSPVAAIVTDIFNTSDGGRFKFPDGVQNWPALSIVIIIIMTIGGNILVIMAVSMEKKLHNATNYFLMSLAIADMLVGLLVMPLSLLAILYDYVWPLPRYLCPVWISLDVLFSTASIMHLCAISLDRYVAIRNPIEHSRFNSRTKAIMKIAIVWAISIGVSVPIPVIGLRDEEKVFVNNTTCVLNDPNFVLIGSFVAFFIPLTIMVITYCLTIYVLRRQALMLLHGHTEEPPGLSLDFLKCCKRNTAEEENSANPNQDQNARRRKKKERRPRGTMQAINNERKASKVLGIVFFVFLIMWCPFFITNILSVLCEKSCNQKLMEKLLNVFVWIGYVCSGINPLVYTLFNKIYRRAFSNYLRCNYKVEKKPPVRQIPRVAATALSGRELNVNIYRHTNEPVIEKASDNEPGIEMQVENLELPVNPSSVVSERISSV
Experiment: Displacement of [3H]mesulergine from human recombinant 5HT2C receptor expressed in CHO-K1 cells
MEASURED_QUANTITY: pIC50
FYI, pIC50 means -log10 of a concentration in mol per litre.

Item `O=S(=O)(c1ccc2ccccc2c1)N(CCCN1CCN(c2cccc(C(F)(F)F)c2)CC1)CC1CCCCC1` has what recorded pIC50?
7.18

Could you share which pIC50 value was measured for CC(CCN1CCN(c2ccc(F)cc2)CC1)NS(=O)(=O)c1ccc2ccccc2c1 (stereo unspecified) ?
7.05

Please give the measured pIC50 for this molecule: `O=S(=O)(c1cccc2cccnc12)N(CCCN1CCN(c2ccc(F)cc2)CC1)CC1CCCCC1`
6.87

Please give the measured pIC50 for this molecule: `O=S(=O)(c1ccc(C(F)(F)F)cc1)N(CCCN1CCN(c2ccccc2)CC1)CC1CCCCC1`
6.81

What measured pIC50 goes with `COc1ccc(S(=O)(=O)N(CCCN2CCN(c3ccccc3)CC2)CC2CCCCC2)cc1` ?
7.10

Which pIC50 is listed for `COc1ccccc1N1CCN(CCCN(CC2CCCCC2)S(=O)(=O)c2cccc3cccnc23)CC1` ?
6.93
